Test system: ZIKV^GFP
Assay: ZIKV^GFP antiviral assay, GFP by FACS at 24 h post-infection
Format: cell-based
Settings: Zika virus, Vero, 24 h, read-out: IC50 (nM) Vero
Starred links: 1 amine or outer side, 2 acyl side, 3 side chain; linkers in the order of their positions; H or OH if unused. Non-standard residues stand in square brackets, D forms with d. Residues, ends and D or L forms follow the SMILES beside them. ξ: configuration not given here. X2 = CC(COC=O)CC(C(=O)[*:2])N(C)[*:1]; X4 = CC(O)C(C)CC(C(=O)[*:2])N(C)[*:1]; ξNle(4-Me,5-ene) = C=CC(C)CC(N)C(=O)O; ξLeu(3ξ-OH) = CC(C)C(O)C(N)C(=O)O; NMeA = CN[CH](C)C(=O)O
Observable: IC50 (nM)
Kindly provide the numeric value in nM only, without the unit symbol.

1) C=CC(C)CC1NC(=O)C(CC(C)C(C)O)N(C)C(=O)C(C)N(C)C(=O)C(C(C)CC)NC(=O)C(C(O)C(C)C)NC(=O)C(C)N(C)C(=O)C(C)N(C)C1=O (stereo not drawn) [Compound C5, comptonellin E] (cyclo([X4][ξNle(4-Me,5-ene)][NMeA][NMeA][ξLeu(3ξ-OH)]I[NMeA]); configuration not given here) = 244
2) C=CC(C)CC1NC(=O)C(CC(C)COC=O)N(C)C(=O)C(C)N(C)C(=O)C(C(C)CC)NC(=O)C(C(O)C(C)C)NC(=O)C(C)N(C)C(=O)C(C)N(C)C1=O (stereo not drawn) [Compound C6, comptonellin F] (cyclo([X2][ξNle(4-Me,5-ene)][NMeA][NMeA][ξLeu(3ξ-OH)]I[NMeA]); configuration not given here) = 115

Next compound, please.
Input line: Read off the recorded IC50 for COc1cc(-c2oc3c(OC)c(OC)cc(O)c3c(=O)c2OC)ccc1O
Output line: 584

====

Test system: RRV^GFP
Assay: microbe, parasite or virus in culture
Conditions: Ross River virus, Vero, 18 h, read-out: IC50 against RRV
Consider the following compounds and their measured IC50 readings.
Kindly provide the numeric value in µM only, without the unit symbol.

1. COc1cc(-c2oc3c(OC)c(OC)cc(O)c3c(=O)c2OC)ccc1O [Ternatin, ternatin] = 0.977

Next compound, please.
Input line: Read off the recorded IC50 for C=CC(C)CC1NC(=O)C(CC(C)C)N(C)C(=O)C(C)N(C)C(=O)C(C(C)CC)NC(=O)C(C(O)C(C)C)NC(=O)C(C)N(C)C(=O)C(C)N(C)C1=O (centres unmarked) [Compound C1, comptonellin A]
Output line: 0.057

====

Tested on: ZIKV^GFP
Test: ZIKV^GFP antiviral assay, GFP by FACS at 24 h post-infection
Type: cell-based
Settings: Zika virus, Vero, 24 h, read-out: IC50 (nM) Vero
Starred links: 1 amine or outer side, 2 acyl side, 3 side chain; linkers in the order of their positions; H or OH if unused. Non-standard residues stand in square brackets, D forms with d. Residues, ends and D or L forms follow the SMILES beside them. ξ: configuration not given here. X5 = CC(CC(C(=O)[*:2])N(C)[*:1])C(C)OC=O; ξNle(4-Me,5-ene) = C=CC(C)CC(N)C(=O)O; X1 = CCC(C)CC(C(=O)[*:2])N(C)[*:1]; X3 = CC(CO)CC(C(=O)[*:2])N(C)[*:1]; ξLeu(3ξ-OH) = CC(C)C(O)C(N)C(=O)O; NMeA = CN[CH](C)C(=O)O
Consider the following compounds and their measured IC50 readings.
Kindly provide the numeric value in nM only, without the unit symbol.

Answered cases to consult:
1) C=CC(C)CC1NC(=O)C(CC(C)CC)N(C)C(=O)C(C)N(C)C(=O)C(C(C)CC)NC(=O)C(C(O)C(C)C)NC(=O)C(C)N(C)C(=O)C(C)N(C)C1=O (stereo not shown) [Compound C3, comptonellin C] (cyclo([X1][ξNle(4-Me,5-ene)][NMeA][NMeA][ξLeu(3ξ-OH)]I[NMeA]); configuration not given here) = 9
2) C=CC(C)CC1NC(=O)C(CC(C)C)N(C)C(=O)C(C)N(C)C(=O)C(C(C)CC)NC(=O)C(C(O)C(C)C)NC(=O)C(C)N(C)C(=O)C(C)N(C)C1=O (stereo not shown) = 9

Input line: # return IC50 for C=CC(C)CC1NC(=O)C(CC(C)CO)N(C)C(=O)C(C)N(C)C(=O)C(C(C)CC)NC(=O)C(C(O)C(C)C)NC(=O)C(C)N(C)C(=O)C(C)N(C)C1=O (stereo not shown) [Compound C4, comptonellin D] (cyclo([X3][ξNle(4-Me,5-ene)][NMeA][NMeA][ξLeu(3ξ-OH)]I[NMeA]); configuration not given here) , test system: ZIKV^GFP
Output line: 163

Input line: # return IC50 for C=CC(C)CC1NC(=O)C(CC(C)C(C)OC=O)N(C)C(=O)C(C)N(C)C(=O)C(C(C)CC)NC(=O)C(C(O)C(C)C)NC(=O)C(C)N(C)C(=O)C(C)N(C)C1=O (stereo not shown) [Compound C7, comptonellin G] (cyclo([X5][ξNle(4-Me,5-ene)][NMeA][NMeA][ξLeu(3ξ-OH)]I[NMeA]); configuration not given here) , test system: ZIKV^GFP
Output line: 176
